Attribution: the array DNA melting data of Ke et al.

Listing of entries alongside the reported Tm.
test: melting temperature; melt of duplexes; settings: sodium 0.0675 M; strand 1 µM
value type: Tm (°C)

[
  {
    "substance": "CGACGTGCCACATGTGCTG+CAGCACATTGAGCACGTCG ((((((((...((((((((+))))))))...))))))))",
    "value type": "Tm",
    "uom": "°C",
    "numeric result": 52.2
  },
  {
    "substance": "CGACGTGCCATATGTGCTG+CAGCACATAGCGCACGTCG ((((((((..(((((((((+)))))))))..))))))))",
    "value type": "Tm",
    "uom": "°C",
    "numeric result": 50
  },
  {
    "substance": "CGACGTGCCCAATGTGCTG+CAGCACATTTAGCACGTCG ((((((((..(((((((((+)))))))))..))))))))",
    "value type": "Tm",
    "uom": "°C",
    "numeric result": 50.4
  },
  {
    "substance": "CGACGTGCACAATGTGCTG+CAGCACATCGTGCACGTCG ((((((((((.((((((((+)))))))).))))))))))",
    "value type": "Tm",
    "uom": "°C",
    "numeric result": 53
  },
  {
    "substance": "CGACGTGCTCTATGTGCTG+CAGCACATCTCGCACGTCG ((((((((...((((((((+))))))))...))))))))",
    "value type": "Tm",
    "uom": "°C",
    "numeric result": 47.1
  },
  {
    "substance": "CGACGTGCACGATGTGCTG+CAGCACATAAAGCACGTCG ((((((((...((((((((+))))))))...))))))))",
    "value type": "Tm",
    "uom": "°C",
    "numeric result": 46.8
  },
  {
    "substance": "CGACGTGCACGATGTGCTG+CAGCACATAGGGCACGTCG ((((((((.(.((((((((+)))))))).).))))))))",
    "value type": "Tm",
    "uom": "°C",
    "numeric result": 54.9
  }
]
